Catalogue of protein stability index values
B1: PSD2 (parent)
chain: PLMGETQERERVLTHFSRRYCQCN

# Variants of: B1
# method_description: protein stability index of a GFP-peptide fusion (GPS, HEK-293T) (PSI 1-6); higher = more stable;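 further: lentivirally expressed fusions sorted by FACS into six bins by GFP to DsRed ratio, PSI derived from sequencing read proportions per bin multiplied by bin number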
# applied_conditions: c terminus: a fixed tail appended
Just the number, please, no unit attached.

# annotated cases, reported protein stability index shown
{"variant_id": "L13Q", "protein stability index": 3.5}
{"variant_id": "E5F", "protein stability index": 2.74}
{"variant_id": "Y20K", "protein stability index": 3.92}
{"variant_id": "R9D", "protein stability index": 3.79}
{"variant_id": "R9T", "protein stability index": 2.58}

Data point: `E5C` ; protein stability index = 1.32

Data point: `L13I` ; protein stability index = 3.55

Data point: `E10P` ; protein stability index = 2.03

Data point: `E8R` ; protein stability index = 2.78

Data point: `Q7K` ; protein stability index = 2.4

Data point: `R9H` ; protein stability index = 3.23

Data point: `C23H` ; protein stability index = 3.44

Data point: `T14G` ; protein stability index = 2.83

Data point: `Q7C` ; protein stability index = 3.6

Data point: `R9F` ; protein stability index = 2.23
